# Measurement target: GlcNAc(b1-3)[GlcNAc(b1-4)][GlcNAc(b1-6)]GlcNAc
# Assay name: glycan array binding signal (z-score within array); higher = stronger binding
# Stated conditions: glycan notation: IUPAC condensed, linker removed
Only a selection was taken, and the strongest signals are over-represented in it overall.
Value kind: glycan array binding signal (z-score)
Could you keep your reply to the number by itself?

Below: 5 binders and their reported glycan array binding signal (z-score).
Input line: What value of measured glycan array binding signal (z-score) is listed for LFA (Limax flavus) (protein) MSVLFLAASFLLLASFELVAAQGCPRQDPGDWIVIQRRLNADVNFYRGWADYKHGFGDLRCNFWLGNEKIHQLTSHGRYKLRVEFTFNNKSYFAEYSTFKILGEADKYKLQVGGYSGNAGDALTFHNGMAFSTNDRDNDADSIDCAKVYHGAWWYKTCHESNLNGKWGSKKYGEGLNWKAKTTFTATATSSLLKIKALK ?
Output line: -0.405

Input line: What value of measured glycan array binding signal (z-score) is listed for CFEM-PPl (Pichia pastoris), F2QPV1 (protein) AVATPPACLLACAAEVVKESSDCDALNNIQCICENEGSAIHACLESTCPDGLSSTALQSFEDVCESVGTEANLDE ?
Output line: -0.262

Input line: What value of measured glycan array binding signal (z-score) is listed for rCnSL-proB (Clitocybe nebularis) (protein) PTFSPIFALLAFLPFGTLASLLPQTQLVFRINPNLPGPNDVFVGYRGTNNVVGAIYERDGIKDTPMNNGADAELGPGSYITDDLFTAQIFASGSAGNNPGTTATVCKIYADGVQWRGAPKGYLPVLYFGNGQAAEQTRQTYLQGLDIPGTAIRFANLAKTPNQGPTAPRQMVVPSGGLQTLLKASCFPANHAALPQVLSYFNVRAALPPGWNIRTGPEFPNWTN ?
Output line: -0.62

Input line: What value of measured glycan array binding signal (z-score) is listed for RNase 1 (Homo sapiens) (protein) KESRAKKFQRQHMDSDSSPSSSSTYCNQMMRRRNMTQGRCKPVNTFVHEPLVDVQNVCFQEKVTCKNGQGNCYKSNSSMHITDCRLTNGSRYPNCAYRTSPKERHIIVACEGSPYVPVHFDASVEDST ?
Output line: -0.069

Input line: What value of measured glycan array binding signal (z-score) is listed for Strep tagII-anxA1 (Homo sapiens), P04083 (protein) MAMVSEFLKQAWFIENEEQEYVQTVKSSKGGPGSAVSPYPTFNPSSDVAALHKAIMVKGVDEATIIDILTKRNNAQRQQIKAAYLQETGKPLDETLKKALTGHLEEVVLALLKTPAQFDADELRAAMKGLGTDEDTLIEILASRTNKEIRDINRVYREELKRDLAKDITSDTSGDFRNALLSLAKGDRSEDFGVNEDLADSDARALYEAGERRKGTDVNVFNTILTTRSYPQLRRVFQKYTKYSKHDMNKVLDLELKGDIEKCLTAIVKCATSKPAFFAEKLHQAMKGVGTRHKALIRIMVSRSEIDMNDIKAFYQKMYGISLCQAILDETKGDYEKILVALCGGN ?
Output line: 2.8

Switching to the query record.
Input line: What value of measured glycan array binding signal (z-score) is listed for Mincle (Bos taurus) (protein) MNSSTSPASQTERRCFSFQLFSWAIAGTSILLLSACFITRCVVTYSIFQLCDEKKFQPPGDSMELSCYNDGSGSVKNCCPLKWFHFQSSCYLFSPDTMSWRASLKNCSSMGAHLVVINTQEEQEFLYYTKPRKKEFYIGLTDQVTEGQWQWVDGTPFTKSLSFWDAGEPNNLVIVEDCATIRDSSNPRQNWNDVPCFFNMFRVCEMPERKI ?
Output line: 5.17
